assayNotes: yeast display, Sf9 membrane polyspecificity reagent, FACS + sequencing; frameworks hold sequencing errors
quantity: polyreactivity (PSR sort gate)

Worked cases, answers included:
# sequenceEntry, polyreactivity (PSR sort gate)
data = [
    ("QVQLVESGGGLVQAGGSLRLSCAASGSTFLYYAMGWYRQAPGKERELVAAIRVGGGRTYYADSVKGRFTISRDNAKNTVYLQMNSLKPEDTAVYYCAAKRRHRVPFDYWGQGTQVTVSS", "high polyreactivity"),
    ("QVQLVESGGGLVQAGGSLRLSCAASGRTFTNNAMGWYRQAPGKERELVARITKTSGSTHYADSVKGRFTNSRDNAKNTVYLQMNSMKPEDTAVYYCATRGHYHGFYYTYPRYDSWGQGTQVTVSS", "low polyreactivity"),
    ("QVQLVESCGGLVQAGGSLRLSCAASGRIFKYNPMGWYRQAPGQERELVASITASGGRTYYADSVKGRFTISRDIAKNTVYLQMNSLKTEDTAVYYCAAGRPFSKYGYWRQGTQVTVSS", "high polyreactivity"),
    ("QVHLVESGGGLVQAGGSLRLSCAASGRTFVINAMGWYRQAPGKERELVAAITWGGGSTYYADSVKGRFTISRDNAKNTVYLQMNSLKPEDTAVYYCATSYSVQYGGSGYYWGQGTQVTVSS", "low polyreactivity"),
]

State recorded polyreactivity (PSR sort gate) for all listed sequences.
1. QVQLVESGGGLVQAGGSLRLSCAPSGRIFEIYAMGWYRQAPGKESELVAAISWRGVSTYYADSVKGRFTISRDNAKNTVYLQMNSLKPEDTAVYYCNKDVDYFWYVEYDYWGQGTQVTVSS
2. QVQLVESGGGLVQAGGSLRLSCASSGFIFGRNAMGWYRQAPGKERELVAGISSRGGRTYYADSVKGRFTISRDNAKITVYLEMNSLKPEDTAEYYCAAAGLTDYVRYDYWGQGTQVTVSS
3. QVQRVESGGGLVQAGGSLRLSCAASGRTFAGYAMGWYRQAPGKERELVAAITTGGSTKYADSVKGRLTISRDNAKNTVFLQRTSLKPEDTAVYYCNARKRVYSGNTLMYYWGQGTQVTVSS
4. QVQLVESGGGLVQAGGSLRLSCAASGSTVGYYDMGWYRQAPGKERELVATITKSGGTTRYADSVKGRFTISRDNAKNTVYLQMNSLKPEDTAVYYCAADGTWRLLDDYWGQGTQVTVSS
5. QVQLVESGGGLVQAGGSLRLSCAASGSTFIRNAMGWYRQAPGKERELVAAISGSGVSTRYADSVKGRFTISRDNAKNTVYLQMNSLKPEDTAVYYCAKRKQYPYTMGYWGQGTQVTVSS
6. QVQLVESGGGLVQAGGSLRLSCAASGSIFQWYAMGWYRQAPGKERELVAAISFNGGITYYADSVKGRFTISRDIAKNTVYLQMNSLKPEDTAVYYCATLPGWGYAAYEYWGQGTQVTVSS
7. QVQLVESGGGLVQAGGSLRLSCAASGSTFDDNAMGWYRQAPGKERELVAGISTNGGSTSYADSVKGRFTISRDNAKNTVYLQMNSLKPEDTAVYYCAKGMYVQFDYWGQGTQVTVSS

Result:
low polyreactivity
high polyreactivity
high polyreactivity
low polyreactivity
high polyreactivity
low polyreactivity
low polyreactivity

State recorded polyreactivity (PSR sort gate) for all listed sequences.
1. QVQLVESGGGLVQAGGSLRLSCAASGSIFIYYAMGWTRQAPGKERELVATISSDDRTNYTDSVKGRFTISRDNAKNTVYLQMNSLKPEDTAVYYCAADRYWGGRDGPEYDYWGQGTQVTVSS
2. QVQLVESGGGLVQAGGSLRLTCAASGIIFRLNAMGWYRQAPGKERELVAAIRRRGGSTYYADSVKGRFTISRDYAKNTVYLQMNSLKPADTAVYYCAKEPDGSDFGYWGQGTQVTESS
3. QVQLVESGGGLVQAGGSLRLSCAASGRTIWRYAMGWYRKAPGKERELVAAISWSGTSTYYADSVKGRFTISRDNAKNTVYLQMNSLKPEDTAVYYCAVAYPFYGKTLFSPQADYNYWGQGTQVTVSS
4. QVQLVESGRGLVQAVGSLRLSSAASGSIFMWYTMGCYRQAPGKERELVAAISKSGGRTYYADSVKGRFTISRDNAKNTVYLQMNSMKPEDTAVYYCAKLYPYDSPVPDGHQFDYWGQGTQVTVSS

Result:
low polyreactivity
low polyreactivity
high polyreactivity
high polyreactivity

State recorded polyreactivity (PSR sort gate) for all listed sequences.
1. QVQLVESGGGLVQAGGSLRLSCAASGITFYLNAMGWYRQAPGKDRELVADITVSGGSTYYADSVKGRFTISRDNAKNTVYLQMNSLKPEDTAVYYCAADLTISYSQEYYYWGQGTQVTLSS
2. QVQLVESGGGLVQAGGSLRLICAASGFTFSYYAMVWYRQAPGKERELVAVISDRGGITYYADSVKGRFTISRDNAKNTVYLQMNSLKPEDTAVYYCAAQNPRYNYRYYYWGQGTQVTVSS
3. QVQLVESGGGLVQAGGSLRLSCAASGIIIPVYAMGWYRQAPGKERELVAAISSGGSTYYADSVKGRFTISRDNAKNTVYLQMNSLKPEDTAVFYCAAGYQKGYADPGFDYWGQGTQVTVSS
4. QVQLVESGGGLVQAGGSLSLSCAASGRTLYQYAMGWSRQAPGKERELVAAITTSGGSTYYADSVKGRFTISRDNAKNTVYLQMNSLKPEDTAVYYCAAPYTGYRERGYYKSDYWGQGTQVTESS
5. QVHLVESGGGLVQAGGSLRLSCAASGLPFSQNAMGWNRQAPGKERELVAAINTSDDSTYYADSVKGRFTISRDNAKNTVYLQMNSLKPEDTAVYDCAVDGYWYGGIFYYWGQGTQVTVSS
6. QVQLVESGGGLVQAGGSLRLSCAASGRIFSRYVMGWYRQAPGKERELVAAISWNGGSTYYADSVKGRFRISRDNAKNTVYLQMNSLKPEDTAVYYCAARVRVTGTYYTKYDYWGQGTQVTVSS

Result:
1: low polyreactivity; 2: low polyreactivity; 3: high polyreactivity; 4: low polyreactivity; 5: low polyreactivity; 6: high polyreactivity
